settings: 303 K; 101 kPa; Liquid; Pendant drop method
assayEndpoint: interfacial tension (mN/m)
The figure you give is taken to be in mN/m; do not add the unit.

For orientation, consider the following solved cases.
Consider CCCCn1cc[n+](C)c1.O=S(=O)([O-])C(F)(F)F [1-butyl-3-methylimidazolium trifluoromethanesulfonate] + CCCCCC . Its measured interfacial tension is 8.74

Consider CCCCn1cc[n+](C)c1.O=C([O-])C(F)(F)F [1-butyl-3-methylimidazolium trifluoroacetate] + CCCCCCCCCC . Its measured interfacial tension is 10.29

Consider CCCC[n+]1ccn(C)c1.O=S(=O)([N-]S(=O)(=O)C(F)(F)F)C(F)(F)F + CCCCCCCC . Its measured interfacial tension is 8.43

Consider CCCC[n+]1ccn(C)c1.O=S(=O)([N-]S(=O)(=O)C(F)(F)F)C(F)(F)F + CCCCCC . Its measured interfacial tension is 7.5

Consider CCCCCCCCn1cc[n+](C)c1.O=S(=O)([N-]S(=O)(=O)C(F)(F)F)C(F)(F)F + CCCCCCCCCC . Its measured interfacial tension is 3.76

Consider CCCCCCCCn1cc[n+](C)c1.O=S(=O)([N-]S(=O)(=O)C(F)(F)F)C(F)(F)F + CCCCCC . Its measured interfacial tension is 3.02

Now for the molecule whose interfacial tension we want.
Consider CCCC[n+]1ccn(C)c1.O=S(=O)([N-]S(=O)(=O)C(F)(F)F)C(F)(F)F + CCCCCCCCCC . Its measured interfacial tension is 9.21

###

conditions: 308 K; 101 kPa; Liquid; Pendant drop method
interfacial tension overview
The figure you give is taken to be in mN/m; do not add the unit.

Consider CCCCCCCCn1cc[n+](C)c1.O=S(=O)([N-]S(=O)(=O)C(F)(F)F)C(F)(F)F + CCCCCCCCCC . Its measured interfacial tension is 3.63

Consider CCn1cc[n+](C)c1.O=S(=O)([N-]S(=O)(=O)C(F)(F)F)C(F)(F)F + O . Its measured interfacial tension is 9.29

Consider CCCCCCCCn1cc[n+](C)c1.O=S(=O)([N-]S(=O)(=O)C(F)(F)F)C(F)(F)F + O . Its measured interfacial tension is 15.37

---
Consider CCCCCCCCn1cc[n+](C)c1.O=S(=O)([N-]S(=O)(=O)C(F)(F)F)C(F)(F)F + CCCCCCCC . Its measured interfacial tension is 3.49

Consider CCCCn1cc[n+](C)c1.O=C([O-])C(F)(F)F [1-butyl-3-methylimidazolium trifluoroacetate] + CCCCCCCC . Its measured interfacial tension is 9.11

Consider CCCC[n+]1ccn(C)c1.O=S(=O)([N-]S(=O)(=O)C(F)(F)F)C(F)(F)F + O . Its measured interfacial tension is 12.31

Consider CCCCCC[n+]1ccn(C)c1.O=S(=O)([N-]S(=O)(=O)C(F)(F)F)C(F)(F)F + CCCCCCCCCC . Its measured interfacial tension is 6.24

Consider CCCCn1cc[n+](C)c1.O=S(=O)([O-])C(F)(F)F [1-butyl-3-methylimidazolium trifluoromethanesulfonate] + CCCCCCCC . Its measured interfacial tension is 9.7

###

settings: 313 K; 101 kPa; Liquid; Pendant drop method
assayEndpoint: interfacial tension (mN/m)
The figure you give is taken to be in mN/m; do not add the unit.

Consider CCCCCCCCCCn1cc[n+](C)c1.O=S(=O)([N-]S(=O)(=O)C(F)(F)F)C(F)(F)F + O . Its measured interfacial tension is 16.41

Consider CCCCCC[n+]1ccn(C)c1.O=S(=O)([N-]S(=O)(=O)C(F)(F)F)C(F)(F)F + CCCCCC . Its measured interfacial tension is 4.79

Consider CCCCn1cc[n+](C)c1.O=C([O-])C(F)(F)F [1-butyl-3-methylimidazolium trifluoroacetate] + CCCCCCCC . Its measured interfacial tension is 8.98

Consider CCCCn1cc[n+](C)c1.O=S(=O)([O-])C(F)(F)F [1-butyl-3-methylimidazolium trifluoromethanesulfonate] + CCCCCC . Its measured interfacial tension is 8.43

###

conditions: 293 K; 101 kPa; Liquid; Pendant drop method
assayEndpoint: interfacial tension (mN/m)
The figure you give is taken to be in mN/m; do not add the unit.

Consider CCCCn1cc[n+](C)c1.O=S(=O)([O-])C(F)(F)F [1-butyl-3-methylimidazolium trifluoromethanesulfonate] + CCCCCCCC . Its measured interfacial tension is 9.96

Consider CCCCn1cc[n+](C)c1.O=C([O-])C(F)(F)F [1-butyl-3-methylimidazolium trifluoroacetate] + CCCCCC . Its measured interfacial tension is 8.74

Consider CCn1cc[n+](C)c1.O=S(=O)([N-]S(=O)(=O)C(F)(F)F)C(F)(F)F + CCCCCCCCCC . Its measured interfacial tension is 12.87

Consider CCCCn1cc[n+](C)c1.O=S(=O)([O-])C(F)(F)F [1-butyl-3-methylimidazolium trifluoromethanesulfonate] + CCCCCCCCCC . Its measured interfacial tension is 10.79

Consider CCCCCC[n+]1ccn(C)c1.O=S(=O)([N-]S(=O)(=O)C(F)(F)F)C(F)(F)F + CCCCCCCC . Its measured interfacial tension is 5.79

---
Consider CCCC[n+]1ccn(C)c1.O=S(=O)([N-]S(=O)(=O)C(F)(F)F)C(F)(F)F + CCCCCC . Its measured interfacial tension is 7.78

Consider CCCCCCCCCCn1cc[n+](C)c1.O=S(=O)([N-]S(=O)(=O)C(F)(F)F)C(F)(F)F + O . Its measured interfacial tension is 17.71

###

details: 303 K; 101 kPa; Liquid; Pendant drop method
Where interfacial tension equals or exceeds 10 mN/m, the correct label is condition met; where it does not, the label is condition not met.

Does the molecule CCCCn1cc[n+](C)c1.O=S(=O)([O-])C(F)(F)F [1-butyl-3-methylimidazolium trifluoromethanesulfonate] + CCCCCCCCCC have recorded interfacial tension that is 10 mN/m or more?
condition met

---
Does the molecule CCCCCCCCn1cc[n+](C)c1.O=S(=O)([N-]S(=O)(=O)C(F)(F)F)C(F)(F)F + CCCCCCCC have recorded interfacial tension that is 10 mN/m or more?
condition not met

Does the molecule CCCC[n+]1ccn(C)c1.O=S(=O)([N-]S(=O)(=O)C(F)(F)F)C(F)(F)F + O have recorded interfacial tension that is 10 mN/m or more?
condition met

Does the molecule CCCCCC[n+]1ccn(C)c1.O=S(=O)([N-]S(=O)(=O)C(F)(F)F)C(F)(F)F + CCCCCC have recorded interfacial tension that is 10 mN/m or more?
condition not met

Does the molecule CCCCn1cc[n+](C)c1.O=C([O-])C(F)(F)F [1-butyl-3-methylimidazolium trifluoroacetate] + CCCCCCCC have recorded interfacial tension that is 10 mN/m or more?
condition not met

Does the molecule CCn1cc[n+](C)c1.O=S(=O)([N-]S(=O)(=O)C(F)(F)F)C(F)(F)F + O have recorded interfacial tension that is 10 mN/m or more?
condition not met

Does the molecule CCCCCCCCn1cc[n+](C)c1.O=S(=O)([N-]S(=O)(=O)C(F)(F)F)C(F)(F)F + O have recorded interfacial tension that is 10 mN/m or more?
condition met

Does the molecule CCCCCC[n+]1ccn(C)c1.O=S(=O)([N-]S(=O)(=O)C(F)(F)F)C(F)(F)F + O have recorded interfacial tension that is 10 mN/m or more?
condition met

Does the molecule CCCCn1cc[n+](C)c1.O=C([O-])C(F)(F)F [1-butyl-3-methylimidazolium trifluoroacetate] + CCCCCC have recorded interfacial tension that is 10 mN/m or more?
condition not met

Measured values drawn from the NIST ThermoML archive (doi:10.1016/j.fluid.2010.02.022) for this set.
